Molecular target: rAtACBP6 (Arabidopsis thaliana, UniProt P57752)
Construct: made in house; host or cells: Escherichia coli
Sequence (P57752 whole entry): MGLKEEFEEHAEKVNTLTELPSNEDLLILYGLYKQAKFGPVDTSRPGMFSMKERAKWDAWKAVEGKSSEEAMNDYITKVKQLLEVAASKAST
Experiment: ITC of acyl-CoA esters binding to rAtACBP6
Conditions: ITC, 30°C, 10 mM sodium phosphate buffer pH 7.0; mean of three±S.D.; in kcal/mol
Method: The protein expression plasmids containing full-length AtACBP4 and AtACBP5 cDNA were previously constructed in the vector pRSETB (Invitrogen) as pAT184 and pAT185, respectively. […] Protein concentrations were determined by the standard Bradford assay (Bio-Rad). Calorimetric titration was performed with a MicroCal iTC200 system (GE Healthcare) at 30°C. […] Raw data were integrated and analysed using the Origin v.7.0 software accompanying the calorimeter.
reported.metric: ΔG
Please reply with the value in numeric form only.

I am curious: what ΔG value has been reported for CCCCCCCCCCCCCCCCCC(=O)SCCNC(=O)CCNC(=O)[C@H](O)C(C)(C)COP(=O)(O)OP(=O)(O)OC[C@H]1O[C@@H](n2cnc3c(N)ncnc32)[C@H](O)[C@@H]1OP(=O)(O)O [18:0] ?
−10.0

// same read-out, input: CCCCCCCCCCCCCC(=O)SCCNC(=O)CCNC(=O)[C@H](O)C(C)(C)COP(=O)(O)OP(=O)(O)OC[C@H]1O[C@@H](n2cnc3c(N)ncnc32)[C@H](O)[C@@H]1OP(=O)(O)O [14:0]
−10.2

Let us now turn to CCCCC/C=C\C/C=C\CCCCCCCC(=O)SCCNC(=O)CCNC(=O)[C@H](O)C(C)(C)COP(=O)(O)OP(=O)(O)OC[C@H]1O[C@@H](n2cnc3c(N)ncnc32)[C@H](O)[C@@H]1OP(=O)(O)O [18:2, linoleoyl-CoA]
−10.2
